These entries and their values trace back to patent US6780992B2.

Kindly supply the reported inhibition in vivo at 100 mg/kg/day values for the records listed here.
- Tested on: C57BL/KsJ-db/db mice
- procedure_details: blood sugar and triglycerides lowering in db/db mice, oral gavage daily for 6 days
- Assay type: in vivo
- test_parameters: Mus musculus, 144 h, dose 100 mg/kg/day oral gavage, 6 days treated, read-out: Triglyceride lowering (%)
The answer is to be given in %; state only the numeric part.

Give measured inhibition in vivo at 100 mg/kg/day for CCc1c(C)nc(CC)n(CCOc2ccc(/C=C3\SC(=O)NC3=O)cc2)c1=O [Example 6] (C57BL/KsJ-db/db mice).
31

Give measured inhibition in vivo at 100 mg/kg/day for CCc1nc(C)cc(=O)n1CCOc1ccc(/C=C2\SC(=O)NC2=O)cc1 [Example 3] (C57BL/KsJ-db/db mice).
12

Give measured inhibition in vivo at 100 mg/kg/day for CCn1c(COc2ccc(/C=C3\SC(=O)NC3=O)cc2)nc2ccccc2c1=O [Example 13] (C57BL/KsJ-db/db mice).
57

Give measured inhibition in vivo at 100 mg/kg/day for Cn1c(COc2ccc(/C=C3\SC(=O)NC3=O)cc2)nc2ccccc2c1=O [Example 12] (C57BL/KsJ-db/db mice).
57

Give measured inhibition in vivo at 100 mg/kg/day for CCc1nc(-c2ccccc2)cc(=O)n1CCOc1ccc(/C=C2\SC(=O)NC2=O)cc1 [Example 7] (C57BL/KsJ-db/db mice).
35

---

Kindly supply the reported inhibition in vivo at 30 mg/kg/day values for the records listed here.
- Test system: C57BL/KsJ-db/db mice
- procedure_details: blood sugar and triglycerides lowering in db/db mice, oral gavage daily for 6 days
- Type: in vivo
- test_parameters: Mus musculus, 144 h, dose 30 mg/kg/day oral gavage, 6 days treated, read-out: Maximum reduction in blood glucose level (%)
The answer is to be given in %; state only the numeric part.

Output measured inhibition in vivo at 30 mg/kg/day for this item: Cn1c(COc2ccc(CC3SC(=O)NC3=O)cc2)nc2ccccc2c1=O (stereo not drawn)
55

Output measured inhibition in vivo at 30 mg/kg/day for this item: `Cc1nc2ncccc2c(=O)n1CCOc1ccc(/C=C2\SC(=O)NC2=O)cc1`
32

Output measured inhibition in vivo at 30 mg/kg/day for this item: `Cc1nc2ccccc2c(=O)n1CCOc1ccc(/C=C2\SC(=O)NC2=O)cc1`
46

Output measured inhibition in vivo at 30 mg/kg/day for this item: CCCc1nc(C)cc(=O)n1CCOc1ccc(CC2SC(=O)NC2=O)cc1 (stereo not drawn)
65

Output measured inhibition in vivo at 30 mg/kg/day for this item: CCc1nc(-c2ccccc2)cc(=O)n1CCOc1ccc(CC2SC(=O)NC2=O)cc1 (stereo not drawn)
64

Output measured inhibition in vivo at 30 mg/kg/day for this item: CCc1nc(C)cc(=O)n1CCOc1ccc(CC2SC(=O)NC2=O)cc1 (stereo not drawn)
73
